The reported measurements were obtained from patent US20140017242A1.

Target: T1, human BKB2R-derived epitope peptide (SEQ ID NO:73), PEG-biotin (human, also: PEG-biotin, site not given here)
T1 construct: also called immunogenic human BKB2R peptide fragment
T1 peptide: KEYSDEGHNVTAC
Experiment: BLI (Octet), peptide-PEG-biotin on streptavidin sensor, antibody 500 nM
Protocol: For the Octet study, antibodies were analyzed by kinetic titration of the antibodies. […] Sensor Prep: Streptavidin biosensors (FortéBio Inc, Menlo Park, Calif.) were coated by incubation in a solution containing a peptide ([…]-PEG-biotin) (Biosyn, Lewisville, Tex.) at 50 μg/ml (300 seconds/1000 rpm shaking). […] Octet system software calculated kinetic constants for on rate/off rate/affinity. […]
Where no end group is shown, it is not given here.
Provide the reported Max Response of each item.

// Max Response lookup, key: humanized anti-BKB2R antibody H39/L39 (antibody, human IgG2, kappa, V domains shown) VH: EVKLVESGGGLVQPGGSLRLSCAVSGFTFSDYWMDWVRQAPGKGLEWVAEIRLKSDNYATHYAASVKGRFTISRDDSKSRLYLQMNSLKTEDTAVYYCTRDYYAMEYWGQGTTVTVSS VL: DVVMTQTPLSLSVTPGQPASISCKSSQTIVHSNGKTYLEWYLQKPGQSPQLLIYKVSNRFSGVPDRFSGSGSGTDFTLKISRVEAEDVGVYYCFQASHVPYTFGQGTKLEIKR 0.0915

Returns the measured Max Response for the input binder. Input: humanized anti-BKB2R antibody H37/L39 (antibody, human IgG2, kappa, V domains shown) VH: EVQLVESGGGLVQPGGSLRLSCAASGFTFSDYWMDWVRQAPGKGLEWVGEIRLKSDNYATHYAASVKGRFTISRDDSKNSLYLQMNSLKTEDTAVYYCTRDYYAMEYWGQGTTVTVSS VL: DVVMTQTPLSLSVTPGQPASISCKSSQTIVHSNGKTYLEWYLQKPGQSPQLLIYKVSNRFSGVPDRFSGSGSGTDFTLKISRVEAEDVGVYYCFQASHVPYTFGQGTKLEIKR 0.121

Requested read-out: Max Response. Entry: humanized anti-BKB2R antibody H37/L37 (antibody, human IgG2, kappa, V domains shown) VH: EVQLVESGGGLVQPGGSLRLSCAASGFTFSDYWMDWVRQAPGKGLEWVGEIRLKSDNYATHYAASVKGRFTISRDDSKNSLYLQMNSLKTEDTAVYYCTRDYYAMEYWGQGTTVTVSS VL: DIVMTQTPLSLSVTPGQPASISCKSSQTIVHSNGKTYLYWYLQKPGQSPQLLIYKVSSRFSGVPDRFSGSGSGTDFTLKISRVEAEDVGVYYCFQASHVPYTFGQGTKLEIKR 0.12
